System: HEK-CMV-Luc2-Hygro cells
Assay: High-throughput genome-wide siRNA screen and validation screen for luciferase expression
Assay type: cell-based, human
Settings: Table 3; viable cell density as % of negative control, primary screen, 72 h
Procedure: The Silencer Select™ Human genome siRNA library (Ambion), which targets 21,585 human genes with 3 siRNAs per gene, was used for screening. Each siRNA is arrayed in an individual well (Corning 3570, 384 well, white, solid bottom plates). […] All plates were incubated at room temperature for 20 minutes to stabilize the luminescent signal and the signal was then measured with PerkinElmer Envision 2104 Multilabel™ plate reader. […]
Exam item: assign Condition met to entries whose VIA is below 80 and Condition not met to entries at or above 80. Note that a value of exactly 80 receives Condition not met.

Field: example entries. Status: answers known.
substance: 47 (GUACCUGCGGGAUUACUCATT; chemistry not given here; listed as Homo sapiens) [compound 47]
class: Condition not met

substance: 78 (CGGAAUCAAUGAUCCUGUATT; chemistry not given here; listed as Homo sapiens) [compound 78]
class: Condition met

substance: 44 (CAACAGAUCAGAGAACAAATT; chemistry not given here; listed as Homo sapiens) [compound 44]
class: Condition not met

substance: 66 (GCAACAGAAUCGAGCAAGATT; chemistry not given here; listed as Homo sapiens) [compound 66]
class: Condition not met

Now consider the entry below.
Q) For 71 (GAUUACUUCUUGACUAUCATT; chemistry not given here; listed as Homo sapiens) [compound 71] , is the recorded VIA below the cut-off of 80?
A) Condition not met
